Reference for the values: ChEMBL document CHEMBL3045069

I'd appreciate it if you could supply Activity values for the items below.
system: Henosepilachna vigintioctopunctata; assay: Antifeedant activity against Henosepilachna vigintioctopunctata in Solanum nigrum leaves assessed as mean leaf area fed at 5 ug/cm'2 by dual choice leaf disk bioassay (reference value: 0.74 +/- 0.02 to 0.91 +/- 0.01 cm'2); type: functional
Answers are plain numbers, in cm2.

Here's what some known entries look like.
Fill blank: measured Activity of the compound COc1cc(O)c2c(c1)C(=O)c1cc(C)cc(O)c1C2=O is ____.
0.32

// same read-out, input: Cc1cc(O)c2c(c1)C(=O)c1cc(O)cc(O)c1C2=O
0.3

// same read-out, input: C/C=C(\C)C(=O)O[C@H]1C[C@@H](OC(C)=O)[C@@]2(C(=O)OC)CO[C@H]3[C@@H](O)[C@@](C)([C@]45O[C@@]4(C)[C@H]4C[C@@H]5O[C@@H]5OC=C[C@@]54O)[C@H]4[C@]1(CO[C@]4(O)C(=O)OC)[C@@H]32
0.2

// same read-out, input: Cc1cc(O)c2c(c1)C(=O)c1cccc(O)c1C2=O
0.43

// same read-out, input: COc1cc(OC)c2c(c1OC)C(=O)C1=C(C2=O)[C@@H](C)O[C@@H](C)C1
0.39

// same read-out, input: COc1c2c(c(OC)c3c1C(=O)C1=C(C3=O)[C@@H](C)O[C@@H](C)C1)OCO2
0.34

Give me Activity for each of these compounds, listed below.
1. COc1c2c(c(O)c3c1C(=O)c1coc(C)c1C3=O)OCO2
2. COc1c2c(c(O)c3c1C(=O)C1=C(C[C@H](C)O[C@@H]1C)C3=O)OCO2

[0.37, 0.28]
